viability, T/C values, listed per item
- System: HUVEC/MSC spheroids viability
- Assay overview: Human HUVEC/MSC cell line growth inhibition [KRAS2];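 further: percent of DMSO vehicle control luminescence so 100% = untreated viability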
- Condition notes: second compound 0.1 µM; first compound 0.316 µM; active compounds read low
Reply numerically in %, unit not repeated.

CC(C)NCC(C(=O)N1CCN(c2ncnc3c2C(C)CC3O)CC1)c1ccc(Cl)cc1 (stereo unspecified) + CNCc1ccccc1-c1csc(C(C)Nc2nc(C)nc3cc(OC)c(OC)cc23)c1	75.6
Cn1nccc1Nc1nccc(-c2cc3c(s2)C(C)(C)N(CCN2CCOCC2)C3=O)n1 + CC1OCC2(CCN(c3cnc(Sc4ccnc(N)c4Cl)c(N)n3)CC2)C1N	124
CC1OCC2(CCN(c3cnc(Sc4ccnc(N)c4Cl)c(N)n3)CC2)C1N (stereo unspecified) + C=CC(=O)N1CCN(c2nc(=O)n(-c3c(C)ccnc3C(C)C)c3nc(-c4c(O)cccc4F)c(F)cc23)C(C)C1	97.2
COC(=O)c1ccc2c(C(=Nc3ccc(N(C)C(=O)CN4CCN(C)CC4)cc3)c3ccccc3)c(O)[nH]c2c1 + C=CC(=O)N1CCN(c2nc(=O)n(-c3c(C)ccnc3C(C)C)c3nc(-c4c(O)cccc4F)c(F)cc23)C(C)C1	99.8

Lookup: # query: viability, T/C | item CC1OCC2(CCN(c3cnc(Sc4ccnc(N)c4Cl)c(N)n3)CC2)C1N (stereo unspecified) + COc1cc2nc(C)nc(NC(C)c3cc(N)cc(C(F)(F)F)c3)c2cc1OC1CCOC1 | system: HUVEC/MSC spheroids viability
Found: 76.8

Lookup: What reported viability, T/C corresponds to CCNC(=O)CC1N=C(c2ccc(Cl)cc2)c2cc(OC)ccc2-n2c(C)nnc21 (stereo unspecified) + C=CC(=O)N1CCN(c2nc(=O)n(-c3c(C)ccnc3C(C)C)c3nc(-c4c(O)cccc4F)c(F)cc23)C(C)C1 on HUVEC/MSC spheroids viability?
Found: 110

Lookup: Requested read-out viability, T/C, target or system HUVEC/MSC spheroids viability, entry CC1(C)CCC(CN2CCN(c3ccc(C(=O)NS(=O)(=O)c4ccc(NCC5CCOCC5)c([N+](=O)[O-])c4)c(Oc4cnc5[nH]ccc5c4)c3)CC2)=C(c2ccc(Cl)cc2)C1 + COc1cc2nc(C)nc(NC(C)c3cc(N)cc(C(F)(F)F)c3)c2cc1OC1CCOC1
Found: 102

---

- Tested on: HUVEC/MSC spheroids viability
- Assay overview: Human HUVEC/MSC cell line growth inhibition [KRAS2];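 further: percent of DMSO vehicle control luminescence so 100% = untreated viability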
- Condition notes: second compound 0.316 µM; first compound 0.316 µM; active compounds read low
- Description: Multicellular complex tumor spheroid response to RAS pathway inhibitors in combination with a targeted agents in patient-derived cell lines with oncogenic KRAS variants from multiple cancer types A high-throughput screen of multi-cell type tumor spheroids was designed to identify active combinations of targeted small molecules and KRAS pathway inhibitors. […] Compounds. […] If the clinical Cmax for an agent had not been determined, the highest concentration tested was 10 microM. […]
Result type: viability, T/C (%)
Output spec: scalar in %, unitless text.

CC1OCC2(CCN(c3cnc(Sc4ccnc(N)c4Cl)c(N)n3)CC2)C1N (centres undefined) + COc1cc2nc(C)nc(NC(C)c3cc(N)cc(C(F)(F)F)c3)c2cc1OC1CCOC1	88

Lookup: Param item = O=C(c1cc(Cc2n[nH]c(=O)c3ccccc23)ccc1F)N1CCN(C(=O)C2CC2)CC1 + CNCc1ccccc1-c1csc(C(C)Nc2nc(C)nc3cc(OC)c(OC)cc23)c1 ; retrieve measured viability, T/C.
Found: 76.7

Lookup: # get_value(readout='viability, T/C', item= COC(=O)c1ccc2c(C(=Nc3ccc(N(C)C(=O)CN4CCN(C)CC4)cc3)c3ccccc3)c(O)[nH]c2c1 + CC1OCC2(CCN(c3cnc(Sc4ccnc(N)c4Cl)c(N)n3)CC2)C1N )
Found: 73.4

Lookup: Returns the measured viability, T/C for the input compound. Input: CC(C)NCC(C(=O)N1CCN(c2ncnc3c2C(C)CC3O)CC1)c1ccc(Cl)cc1 (centres undefined) + CNCc1ccccc1-c1csc(C(C)Nc2nc(C)nc3cc(OC)c(OC)cc23)c1
Found: 83.3
